- assayed_target: human GcgR (Homo sapiens)
- Sequence (P47871 26-477): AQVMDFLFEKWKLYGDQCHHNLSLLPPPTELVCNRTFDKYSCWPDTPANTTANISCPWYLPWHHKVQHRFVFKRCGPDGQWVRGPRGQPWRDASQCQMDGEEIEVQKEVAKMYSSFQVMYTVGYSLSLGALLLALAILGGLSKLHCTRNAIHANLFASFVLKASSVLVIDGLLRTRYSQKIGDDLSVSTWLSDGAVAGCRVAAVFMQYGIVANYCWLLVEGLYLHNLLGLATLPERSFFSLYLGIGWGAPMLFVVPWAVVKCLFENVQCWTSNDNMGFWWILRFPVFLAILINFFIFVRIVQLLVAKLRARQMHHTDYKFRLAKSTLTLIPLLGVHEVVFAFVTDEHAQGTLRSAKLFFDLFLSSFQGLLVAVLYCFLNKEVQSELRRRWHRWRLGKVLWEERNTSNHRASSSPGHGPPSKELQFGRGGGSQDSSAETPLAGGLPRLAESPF
- protocol_notes: Functional cAMP activity in the presence of 1% HSA
- Type: cell-based
- cond: read-out: cAMP Rel EC50, hGcgR
Starred links: 1 amine or outer side, 2 acyl side, 3 side chain; linkers in the order of their positions; H or OH if unused. Non-standard residues stand in square brackets, D forms with d. Groups on a side chain read outwards from the residue. No end group written: not given here. *: point of attachment. C20 diacid = O=C(O)CCCCCCCCCCCCCCCCCCC(=O)*; C18 diacid = O=C(O)CCCCCCCCCCCCCCCCC(=O)*; Phe(4-CN) = N#Cc1ccc(C[C@H](N)C(=O)O)cc1; αMePhe(2-F) = C[C@](N)(Cc1ccccc1F)C(=O)O; γGlu = O=C(O)[C@H](CCC(=O)[*:2])N[*:1]; αMe4Pal = C[C@](N)(Cc1ccncc1)C(=O)O; αMeY = C[C@](N)(Cc1ccc(O)cc1)C(=O)O; 4Pal = N[C@@H](Cc1ccncc1)C(=O)O; αMeL = CC(C)C[C@](C)(N)C(=O)O; αMeS = C[C@](N)(CO)C(=O)O; Orn = NCCC[C@H](N)C(=O)O; AEEA = NCCOCCOCC(=O)O; Aib = CC(C)(N)C(=O)O
EC50 under 700 nM gets Satisfied, anything at or over 700 nM gets Not satisfied.

[[record]]
substance = "H-Y[Aib]QGTFTSDFS[Orn][αMeL]LDKK([AEEA-γGlu-C20 diacid])AQ[Aib]AFIEYLLE[Aib]GPSSGAPPPSGS-NH2 [Example 73]"
assigned_category = "Not satisfied"

[[record]]
substance = "H-Y[Aib]QGTFTSDFSK[αMeL]LDKK([AEEA-γGlu-C20 diacid])AQ[Aib]AFIEYLLEGGPSSGAPPP[γGlu]GE-NH2 [Example 53]"
assigned_category = "Not satisfied"

[[record]]
substance = "H-Y[Aib]QGTFTSDFS[Orn][αMeL]LDKK([AEEA-AEEA-γGlu-C18 diacid])AQ[Aib]AFIEYLLE[Aib]GPSSGAPPPSGE-NH2 [Example 111]"
assigned_category = "Not satisfied"

[[record]]
substance = "H-Y[Aib]QGTFTSDFS[Orn][αMeL]LDKK([AEEA-γGlu-C18 diacid])AQ[Aib]AFIEWLLEGGHSSGAPPPSGT-NH2 [Example 171]"
assigned_category = "Satisfied"

[[record]]
substance = "H-Y[Aib]QGTFTSDFS[Orn][αMeL]LDKK([AEEA-γGlu-C18 diacid])AQ[Aib]AFIEYLLAGGPSSGAPPPSGSE-NH2 [Example 90]"
assigned_category = "Not satisfied"

[[record]]
substance = "H-Y[Aib]QGTFTSDFS[Orn][αMeL]LDKK([AEEA-AEEA-γGlu-C18 diacid])AQ[Aib]AFIEYLLE[Aib]G[4Pal]SSGAPPPSGS-NH2 [Example 183]"
assigned_category = "Satisfied"

[[record]]
substance = "H-Y[Aib]QGT[αMePhe(2-F)]TSD[4Pal]SI[αMeL]LD[Orn]K([AEEA-γGlu-C18 diacid])AQ[αMe4Pal][Orn]FI[dE][αMeY]LIEGGPSSGEPPPEAE-NH2 [Example 676]"
assigned_category = "Satisfied"

[[record]]
substance = "H-Y[Aib]QGT[αMePhe(2-F)]TSD[4Pal][αMeS]I[αMeL]LD[Orn]K([AEEA-γGlu-C18 diacid])AA[Aib]EFI[dE][αMeY]LIEGGPSSGEPPPSGGGE-NH2 [Example 746]"
assigned_category = "Satisfied"

[[record]]
substance = "H-Y[Aib]QGTFTSDFS[Orn][αMeL]LDKK([AEEA-γGlu-C20 diacid])AQ[Aib]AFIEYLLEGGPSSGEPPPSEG-NH2 [Example 59]"
assigned_category = "Not satisfied"

[[record]]
substance = "H-Y[Aib]QGTFTSD[4Pal]SR[αMeL]LDKK([AEEA-γGlu-C18 diacid])AQ[Aib]AFIEYLIE[Aib]GPSSGAPPPSGS-NH2 [Example 802]"
assigned_category = "Not satisfied"

[[record]]
substance = "H-Y[Aib]QGTFTSD[4Pal]SQ[αMeL]LD[Orn]K([AEEA-γGlu-C18 diacid])AQ[αMe4Pal]AFIEYLIQ[Aib]GPSSGEPPPSGSEE-NH2 [Example 1096]"
assigned_category = "Satisfied"

[[record]]
substance = "H-Y[Aib]QGT[αMePhe(2-F)]TSD[4Pal][αMeS]ILLD[Orn]K([γGlu-γGlu-C18 diacid])AQ[Aib][Orn]FI[dE]YLIEGGPSSGEPPPEGAEE-NH2 [Example 604]"
assigned_category = "Satisfied"

[[record]]
substance = "Y[Aib]QGTFTSD[4Pal]SR[αMeL]LDKK([γGlu-γGlu-C18 diacid])AQ[αMe4Pal]AFIE[αMe4Pal]LIEGGPSSGAPPPSGSEE-NH2 [Example 959]"
assigned_category = "Satisfied"

[[record]]
substance = "Y[Aib]QGTFTSDFS[Orn][αMeL]LDKK([AEEA-γGlu-C18 diacid])AQ[Aib]AFIEYLLE[dA]GPSSGEPPPSGE-NH2 [Example 135]"
assigned_category = "Satisfied"

[[record]]
substance = "H-Y[Aib]QGTFTSD[4Pal]S[Orn][αMeL]LD[Orn]K([γGlu-γGlu-C18 diacid])AQ[Aib]AFIE[αMeY]LLEGGPSSGAPPPSGSEE-NH2 [Example 1064]"
assigned_category = "Not satisfied"

[[record]]
substance = "H-Y[Aib]QGTFTSD[Phe(4-CN)]S[Orn][αMeL]LDKK([AEEA-AEEA-γGlu-C18 diacid])AQ[Aib]AFIEYLLE[Aib]GPSSGAPPPSGS-NH2 [Example 178]"
assigned_category = "Not satisfied"

[[record]]
substance = "Y[Aib]QGT[αMePhe(2-F)]TSD[4Pal][αMeS]I[αMeL]LD[Orn]K([AEEA-γGlu-C18 diacid])AQ[αMe4Pal]EFI[dE][αMeY]LIEGGPPS[Aib][Orn]PPP[Orn]SE-NH2 [Example 1196]"
assigned_category = "Satisfied"

[[record]]
substance = "H-Y[Aib]QGT[αMePhe(2-F)]TSD[4Pal]SI[αMeL]LD[Orn]K([γGlu-γGlu-C18 diacid])AQ[αMe4Pal][Orn]FI[dE][αMeY]LIEGGPSSGEPPPEAE-NH2 [Example 684]"
assigned_category = "Satisfied"

[[record]]
substance = "Y[Aib]QGT[αMePhe(2-F)]TSDYSKLLDKIAQK([AEEA-γGlu-C20 diacid])AFIQYLIEGGPSSGEPPPSEG-NH2 [Example 338]"
assigned_category = "Satisfied"

[[record]]
substance = "Y[Aib]QGT[αMePhe(2-F)]TSD[4Pal]SI[αMeL]LD[Orn]K([AEEA-γGlu-C18 diacid])AQ[αMe4Pal][Orn]FI[dE][αMeY]LIEGGPSSGEPPPEGGGE-NH2 [Example 757]"
assigned_category = "Satisfied"

[[record]]
substance = "H-Y[Aib]QGTFTSDFS[Orn][αMeL]LDKK([AEEA-γGlu-C18 diacid])AQ[Aib]AFIEYLLAGGPSSGAPPPEGS-NH2 [Example 93]"
assigned_category = "Not satisfied"

